The reported measurements were obtained from ChEMBL document CHEMBL2086252.

Measured TD50, listed per entry.
Assay: Neurotoxicity in ip dosed albino CF1 mouse assessed as minimal motor impairment by rotarod test
Type: toxicity, organism-based
Conditions: in vivo
Reply with a number, then the unit it belongs to.

In [3]: df
Out[3]:
                                   compound  measure  reported_result
0  NC(=O)OCCc1ccccc1 [PHENYLETHYL CARBAMATE]     TD50        114 mg/kg

Query block: Item under review: CCC(COC(N)=O)C(C)C (racemic) . Reported TD50?
Result block: 157 mg/kg

---

Tested on: Rattus norvegicus
Assay: Neurotoxicity in pilocarpine-induced status epilepticus Sprague-Dawley albino rat model assessed as minimal motor impairment at 100 mg/kg, ip after 0.5 hrs by rotarod test
Format: toxicity, organism-based
Design: dose 100 mg/kg, route intraperitoneal
Details: in vivo
Measure: Activity

                           compound  reported_result
0                  CC(C)(C)COC(N)=O        Non-toxic
1  CCC(C)C(COC(N)=O)C(C)C (racemic)            Toxic
2     CCC(COC(N)=O)CC(C)C (racemic)            Toxic
3     CCCC(COC(N)=O)C(C)C (racemic)            Toxic
4             CC(C)C(COC(N)=O)C(C)C            Toxic
5    CCCC(COC(N)=O)C(C)CC (racemic)            Toxic

Query block: Form field - read-out: Activity; system: Rattus norvegicus; submitted item: CCCC(CCC)COC(N)=O
Result block: Non-toxic

Query block: Form field - read-out: Activity; system: Rattus norvegicus; submitted item: CCC(C)CCOC(N)=O (racemic)
Result block: Toxic

Query block: Form field - read-out: Activity; system: Rattus norvegicus; submitted item: CC(C)(C)CCOC(N)=O
Result block: Non-toxic
